Data origin: ChEMBL document CHEMBL1126278

Field: IC50. Provide a value for each of the molecules that follow.
system: Vero; assay: Inhibitory effect on replication of RNA virus coxsB-4 in Vero cell line; format: functional, cell-based; conditions: Chlorocebus sabaeus

Nc1ncnc2c1ncn2[C@@H]1C=C(CF)[C@@H](O)[C@H]1O
> 200 µg/mL
COCC1=C[C@@H](n2cnc3c(N)ncnc32)[C@H](O)[C@@H]1O
> 400 µg/mL
CC1=C[C@@H](n2cnc3c(N)ncnc32)[C@H](O)[C@@H]1O
> 200 µg/mL

// each listed molecule needs a value for IC50
1. C=CC1=C[C@@H](n2cnc3c(N)ncnc32)[C@H](O)[C@@H]1O
2. C[C@H](O)C1=C[C@@H](n2cnc3c(N)ncnc32)[C@H](O)[C@@H]1O
3. C[C@@H](O)C1=C[C@@H](n2cnc3c(N)ncnc32)[C@H](O)[C@@H]1O

> 200 µg/mL
> 200 µg/mL
> 200 µg/mL

State the recorded IC50 for every item in the following list.
1. CSCC1=C[C@@H](n2cnc3c(N)ncnc32)[C@H](O)[C@@H]1O
2. Nc1ncnc2c1ncn2[C@@H]1C=C(CCl)[C@@H](O)[C@H]1O
3. Nc1ncnc2c1ncn2[C@@H]1C=C(CO)[C@@H](O)[C@H]1O

> 200 µg/mL
> 40 µg/mL
> 40 µg/mL

* * *

Task for the reader: assign each of the following compounds its reported IC50.
test system: HEL; experiment: Inhibitory effect on replication of DNA virus VZV (Oka) on HEL cell line.; type: functional, cell-based; details: Homo sapiens
Answers are plain numbers, in µg/mL.

# example entries with known answers
Nc1ncnc2c1ncn2[C@@H]1C=C(CCl)[C@@H](O)[C@H]1O
2.5
C[C@H](O)C1=C[C@@H](n2cnc3c(N)ncnc32)[C@H](O)[C@@H]1O
100
CC1=C[C@@H](n2cnc3c(N)ncnc32)[C@H](O)[C@@H]1O
20

We now examine a further compound.
Lookup: IC50 / HEL / CSCC1=C[C@@H](n2cnc3c(N)ncnc32)[C@H](O)[C@@H]1O
2.5
